# Tested on: T cells isolated from mouse spleens
# METHOD_SUMMARY: T cell proliferation inhibition (CFSE flow cytometry, anti-CD3/anti-CD28 stimulation)
# Type: cell-based
# TEST_CONDITIONS: Mus musculus, T-cell, 72 h, compound 100 nM, mouse spleen T cells, 3 days, read-out: Proliferation inhibition rate (%)
MEASUREMENT_NAME: inhibition at 0.1 µM (%)
Record the value in %, omitting the unit from your answer.

# example entries with known answers
LINE_NOTATION	MEASUREMENT_NAME	VALUE_REPORTED
CC(C)CN1CCN(CCCCCCCCCCCCC(=O)Nc2nc(N)c3[nH]cnc3n2)CC1	inhibition at 0.1 µM	100
CN1CCN(CCCCCCCCCCCCNC(=O)c2ccccc2Oc2ccccc2)CC1	inhibition at 0.1 µM	12.2

Form field: reported inhibition at 0.1 µM of `Nc1ncccc1C(=O)NCCCCCCCCCCCCN1CC(F)C1` 13.8

Form field: reported inhibition at 0.1 µM of `Nc1ncccc1C(=O)CCCCCCCCCCCCCN1CC2CCC(C1)O2` 100

Form field: reported inhibition at 0.1 µM of `Nc1ncccc1C(=O)NCCCCCCCCCCCCN1CCCCC1` 76.1

Measured values drawn from patent US20260183274A1 for this set.
